experimentalContext: in ethyl acetate, 278.15 K
measuredMetric: solubility (mole fraction)
Response field accepts a number only; no unit should be typed.

Sample CC(=O)Nc1ccc(CC(=O)O)cc1 — what was its solubility (mole fraction)? 0.000627
